Value source: patent US20240182536A1

- Measured Target: T1, IL-18 binding protein (IL-18BP) (UniProt O95998 31-194)
- T1 sequence (looked up): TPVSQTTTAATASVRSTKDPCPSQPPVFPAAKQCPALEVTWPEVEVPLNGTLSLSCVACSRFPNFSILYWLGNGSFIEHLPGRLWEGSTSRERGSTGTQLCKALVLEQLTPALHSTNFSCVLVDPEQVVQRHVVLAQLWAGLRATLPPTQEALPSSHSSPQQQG
- Assay Details: cell-based or functional assay
Response key: Condition met means Ratio (-BP/+BP), DF-1000005 >= 1; Condition not met means Ratio (-BP/+BP), DF-1000005 < 1.

Task item: For this binder, is measured Ratio (-BP/+BP), DF-1000005 1 or higher? IL-18 variant E6D, D54T, S55W, T63S, N91S, R104T (ligand) YFGKLDSKLSVIRNLNDQVLFIDQGNRPLFEDMTDSDMRDNAPRTIFIISMYKTWQPRGMAVSISVKSEKISTLSSENKIISFKEMNPPDSIKDTKSDIIFFQTSVPGHDNKMQFESSSYEGYFLASEKERDLFKLILKKEDELGDRSIMFTVQNED
Reply: Condition met

Task item: Please answer likewise for IL-18 variant G3P, E6V, K53A, D54W, S55P, T63S, N91L, R104K, Q154R (ligand) YFPKLVSKLSVIRNLNDQVLFIDQGNRPLFEDMTDSDMRDNAPRTIFIISMYAWPQPRGMAVSISVKSEKISTLSSENKIISFKEMNPPDLIKDTKSDIIFFQKSVPGHDNKMQFESSSYEGYFLASEKERDLFKLILKKEDELGDRSIMFTVRNED
Reply: Condition not met

Task item: Please answer likewise for IL-18 variant G3L, E6Q, T63S, N91L, R104P (ligand) YFLKLQSKLSVIRNLNDQVLFIDQGNRPLFEDMTDSDMRDNAPRTIFIISMYKDSQPRGMAVSISVKSEKISTLSSENKIISFKEMNPPDLIKDTKSDIIFFQPSVPGHDNKMQFESSSYEGYFLASEKERDLFKLILKKEDELGDRSIMFTVQNED
Reply: Condition met

Task item: Please answer likewise for IL-18 variant G3Q, E6N, K53T, D54A, N91K, R104P (ligand) YFQKLNSKLSVIRNLNDQVLFIDQGNRPLFEDMTDSDMRDNAPRTIFIISMYTASQPRGMAVTISVKSEKISTLSSENKIISFKEMNPPDKIKDTKSDIIFFQPSVPGHDNKMQFESSSYEGYFLASEKERDLFKLILKKEDELGDRSIMFTVQNED
Reply: Condition met

Task item: Please answer likewise for IL-18 variant G3Q, E6N, D54Y, S55P, T63S, N91S, R104H (ligand) YFQKLNSKLSVIRNLNDQVLFIDQGNRPLFEDMTDSDMRDNAPRTIFIISMYKYPQPRGMAVSISVKSEKISTLSSENKIISFKEMNPPDSIKDTKSDIIFFQHSVPGHDNKMQFESSSYEGYFLASEKERDLFKLILKKEDELGDRSIMFTVQNED
Reply: Condition met

Task item: Please answer likewise for IL-18 variant G3P, E6I, K53N, D54W, S55P, T63S, N91L, R104Q (ligand) YFPKLISKLSVIRNLNDQVLFIDQGNRPLFEDMTDSDMRDNAPRTIFIISMYNWPQPRGMAVSISVKSEKISTLSSENKIISFKEMNPPDLIKDTKSDIIFFQQSVPGHDNKMQFESSSYEGYFLASEKERDLFKLILKKEDELGDRSIMFTVQNED
Reply: Condition not met

Task item: Please answer likewise for IL-18 variant G3P, E6G, D54T, S55W, N91E, R104K (ligand) YFPKLGSKLSVIRNLNDQVLFIDQGNRPLFEDMTDSDMRDNAPRTIFIISMYKTWQPRGMAVTISVKSEKISTLSSENKIISFKEMNPPDEIKDTKSDIIFFQKSVPGHDNKMQFESSSYEGYFLASEKERDLFKLILKKEDELGDRSIMFTVQNED
Reply: Condition met

Task item: Please answer likewise for IL-18 variant G3P, E6S, K53N, D54Y, S55P, T63I, N91K, R104H (ligand) YFPKLSSKLSVIRNLNDQVLFIDQGNRPLFEDMTDSDMRDNAPRTIFIISMYNYPQPRGMAVIISVKSEKISTLSSENKIISFKEMNPPDKIKDTKSDIIFFQHSVPGHDNKMQFESSSYEGYFLASEKERDLFKLILKKEDELGDRSIMFTVQNED
Reply: Condition met

Task item: Please answer likewise for IL-18 variant G3L, E6Q, T63S, N91L, R104T (ligand) YFLKLQSKLSVIRNLNDQVLFIDQGNRPLFEDMTDSDMRDNAPRTIFIISMYKDSQPRGMAVSISVKSEKISTLSSENKIISFKEMNPPDLIKDTKSDIIFFQTSVPGHDNKMQFESSSYEGYFLASEKERDLFKLILKKEDELGDRSIMFTVQNED
Reply: Condition met

Task item: Please answer likewise for IL-18 variant E6G, D54A, S55K, T63S, N91K, Q114R (ligand) YFGKLGSKLSVIRNLNDQVLFIDQGNRPLFEDMTDSDMRDNAPRTIFIISMYKAKQPRGMAVSISVKSEKISTLSSENKIISFKEMNPPDKIKDTKSDIIFFQRSVPGHDNKMRFESSSYEGYFLASEKERDLFKLILKKEDELGDRSIMFTVQNED
Reply: Condition met
